Reference source for all entries: patent US20250064968A1

Give measured DCmax (NCI-H1944) for each item. Keep answers brief.
# Tested Target: BRM (Homo sapiens, UniProt P51531)
# Construct: endogenous in cells; host or cells: HCC515 and H1944 (NCI-H1944) cells
# Sequence (P51531 whole entry): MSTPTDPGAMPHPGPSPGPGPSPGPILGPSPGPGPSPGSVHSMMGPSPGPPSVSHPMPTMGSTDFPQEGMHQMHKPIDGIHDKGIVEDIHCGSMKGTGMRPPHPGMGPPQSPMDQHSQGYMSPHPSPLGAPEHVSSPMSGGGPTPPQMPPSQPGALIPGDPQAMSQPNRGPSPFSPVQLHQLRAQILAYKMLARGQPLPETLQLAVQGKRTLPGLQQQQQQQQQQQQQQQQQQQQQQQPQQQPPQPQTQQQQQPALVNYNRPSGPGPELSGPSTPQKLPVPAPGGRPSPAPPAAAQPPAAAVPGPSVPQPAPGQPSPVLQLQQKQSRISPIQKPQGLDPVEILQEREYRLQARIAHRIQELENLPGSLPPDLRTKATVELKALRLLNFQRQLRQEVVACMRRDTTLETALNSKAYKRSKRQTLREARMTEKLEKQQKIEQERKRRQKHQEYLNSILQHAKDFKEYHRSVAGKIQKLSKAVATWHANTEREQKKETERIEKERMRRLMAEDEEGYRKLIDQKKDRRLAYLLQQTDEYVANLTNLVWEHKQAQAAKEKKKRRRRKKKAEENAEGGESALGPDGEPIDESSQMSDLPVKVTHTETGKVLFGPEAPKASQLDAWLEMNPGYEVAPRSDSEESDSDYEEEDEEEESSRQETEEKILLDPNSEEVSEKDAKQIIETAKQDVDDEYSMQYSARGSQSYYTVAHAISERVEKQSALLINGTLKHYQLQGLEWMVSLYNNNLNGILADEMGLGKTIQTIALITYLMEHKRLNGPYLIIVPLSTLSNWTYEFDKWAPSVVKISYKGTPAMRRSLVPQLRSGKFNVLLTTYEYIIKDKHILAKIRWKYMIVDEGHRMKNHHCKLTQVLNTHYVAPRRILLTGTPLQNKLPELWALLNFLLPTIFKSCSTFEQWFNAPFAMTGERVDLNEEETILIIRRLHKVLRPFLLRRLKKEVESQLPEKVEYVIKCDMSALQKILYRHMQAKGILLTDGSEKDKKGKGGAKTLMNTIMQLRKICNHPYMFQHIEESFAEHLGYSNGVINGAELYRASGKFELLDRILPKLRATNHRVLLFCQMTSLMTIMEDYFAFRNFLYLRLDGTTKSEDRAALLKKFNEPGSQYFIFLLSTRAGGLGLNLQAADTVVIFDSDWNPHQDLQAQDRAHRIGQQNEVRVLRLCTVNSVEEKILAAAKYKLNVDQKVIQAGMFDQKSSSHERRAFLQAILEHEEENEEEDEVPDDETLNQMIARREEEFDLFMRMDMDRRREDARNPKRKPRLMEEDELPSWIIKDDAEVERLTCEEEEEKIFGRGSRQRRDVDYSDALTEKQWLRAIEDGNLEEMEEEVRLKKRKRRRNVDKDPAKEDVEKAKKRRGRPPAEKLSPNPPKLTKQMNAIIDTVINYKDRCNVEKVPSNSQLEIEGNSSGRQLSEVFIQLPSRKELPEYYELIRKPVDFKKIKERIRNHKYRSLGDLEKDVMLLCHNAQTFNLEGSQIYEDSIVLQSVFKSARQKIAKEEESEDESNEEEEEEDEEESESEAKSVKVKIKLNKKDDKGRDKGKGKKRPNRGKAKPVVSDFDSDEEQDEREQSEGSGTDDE
# Test Method Notes: Cell assays to determine DC50 and Dmax (nuclear BRM immunofluorescence after Ab-CIDE treatment)
# Type: cell-based
# Set-up: unit not given here
# Recorded Conditions: NCI-H1944 cells, 24 h drug treatment, Ab target TfR2, conjugate DAR 5.41-6.14
Note: the reply should be a number with no unit written.

Endpoint output: DCmax (NCI-H1944) of CC(C)[C@@H](C(=O)N1C[C@H](O)C[C@H]1C(=O)N[C@@H](C)c1ccc(C#N)cc1)c1cc(OCCN2CCC(O[C@H]3C[C@H](Oc4cc(N5C6CCC5CN(c5cc(-c7ccccc7O)nnc5NC(=O)OCc5ccc(NC(=O)[C@H](CCCCN(C)C)NC(=O)C7(C(=O)NCCCCCN(C)CCN8C(=O)C=CC8=O)CCC7)cc5)C6)ccn4)C3)CC2)no1.O=C(O)C(F)(F)F [Hy-B-CIDE-9] . Value?
82

Endpoint output: DCmax (NCI-H1944) of CC(C)[C@@H](C(=O)N1C[C@H](O)C[C@H]1C(=O)N[C@@H](C)c1ccc(C#N)cc1)c1cc(OCCN2CCC(O[C@H]3C[C@H](Oc4cc(N5C6CCC5CN(c5cc(-c7ccccc7O)nnc5NC(=O)OCc5ccc(NC(=O)[C@H](CCCCN(C)C)NC(=O)C7(C(=O)NCCCCCNC(=O)[C@H](CO)N8C(=O)C=CC8=O)CCC7)cc5)C6)ccn4)C3)CC2)no1 [Hy-B-CIDE-10] . Value?
80

* * *

Give measured DCmax (NCI-H1944) for each item. Keep answers brief.
# Tested Target: BRM (Homo sapiens, UniProt P51531)
# Construct: endogenous in cells; host or cells: HCC515 and H1944 (NCI-H1944) cells
# Test Method Notes: Cell assays to determine DC50 and Dmax (nuclear BRM immunofluorescence after Ab-CIDE treatment)
# Format: cell-based
# Set-up: unit not given here
# Recorded Conditions: NCI-H1944 cells, 24 h drug treatment, Ab target TfR2, conjugate DAR 5.41-6.14
Note: the reply should be a number with no unit written.

Endpoint output: DCmax (NCI-H1944) of CC(C)[C@@H](C(=O)N1C[C@H](O)C[C@H]1C(=O)N[C@@H](C)c1ccc(C#N)cc1)c1cc(OCCN2CCC(O[C@H]3C[C@H](Oc4cc(N5C6CCC5CN(c5cc(-c7ccccc7OCc7ccc(NC(=O)[C@H](CCCCN(C)C)NC(=O)C8(C(=O)NCCCCCN(C)CCN9C(=O)C=CC9=O)CCC8)cc7)nnc5N)C6)ccn4)C3)CC2)no1 [Hy-B-CIDE-11] . Value?
53

Endpoint output: DCmax (NCI-H1944) of Cc1ncsc1-c1ccc([C@H](C)NC(=O)[C@@H]2C[C@@H](O)CN2C(=O)[C@@H](c2cc(OCCN3CCN(CCOc4cc(N5C6CCC5CN(c5cc(-c7ccccc7OCc7ccc(NC(=O)[C@H](CCCCN(C)C)NC(=O)C8(C(=O)NCCCCCNC(=O)[C@H](CO)N9C(=O)C=CC9=O)CCC8)cc7)nnc5N)C6)ccn4)[C@H](C)C3)no2)C(C)C)cc1.O=C(O)C(F)(F)F [Hy-B-CIDE-1] . Value?
89

Endpoint output: DCmax (NCI-H1944) of Cc1ncsc1-c1ccc([C@H](C)NC(=O)[C@@H]2C[C@@H](O)CN2C(=O)[C@@H](c2cc(OCCN3CCN(CCOc4cc(N5C6CCC5CN(c5cc(-c7ccccc7OCc7ccc(NC(=O)[C@H](CCCCN(C)C)NC(=O)C8(C(=O)NCCCCCNC(=O)CN9C(=O)C=CC9=O)CCC8)cc7)nnc5N)C6)ccn4)[C@H](C)C3)no2)C(C)C)cc1.O=C(O)C(F)(F)F [Hy-B-CIDE-6] . Value?
90

* * *

# Tested Target: BRM (Homo sapiens)
# Construct: endogenous in cells; host or cells: HCC515 and H1944 (NCI-H1944) cells
# Test Method Notes: Cell assays to determine DC50 and Dmax (nuclear BRM immunofluorescence after Ab-CIDE treatment)
# Type: cell-based
# Parameters: unit not given here
# Recorded Conditions: NCI-H1944 cells, 24 h drug treatment, Ab target TfR2, conjugate DAR 5.41-6.14
Exam item: assign 1 to entries whose DCmax (NCI-H1944) is below 80 and -1 to entries at or above 80. Note that a value of exactly 80 receives -1.

Please determine if Cc1ncsc1-c1ccc([C@H](C)NC(=O)[C@@H]2C[C@@H](O)CN2C(=O)[C@@H](c2cc(OCCN3CCN(CCOc4cc(N5C6CCC5CN(c5cc(-c7ccccc7OCc7ccc(NC(=O)[C@H](CCCCN(C)C)NC(=O)C8(C(=O)NCCCCCN(C)CCN9C(=O)C=CC9=O)CCC8)cc7)nnc5N)C6)ccn4)[C@H](C)C3)no2)C(C)C)cc1.O=C(O)C(F)(F)F [Hy-B-CIDE-8] is below 80 in terms of DCmax (NCI-H1944).
1

Please determine if COC[C@@H](C(=O)NCCCCCNC(=O)C1(C(=O)N[C@@H](CCCCN(C)C)C(=O)Nc2ccc(COc3ccccc3-c3cc(N4CC5CCC(C4)N5c4ccnc(OCCN5CCN(CCOc6cc([C@H](C(=O)N7C[C@H](O)C[C@H]7C(=O)N[C@@H](C)c7ccc(-c8scnc8C)cc7)C(C)C)on6)C[C@H]5C)c4)c(N)nn3)cc2)CCC1)N1C(=O)C=CC1=O.O=C(O)C(F)(F)F [Hy-B-CIDE-2] is below 80 in terms of DCmax (NCI-H1944).
-1

Please determine if CC(C)[C@@H](C(=O)N1C[C@H](O)C[C@H]1C(=O)N[C@@H](C)c1ccc(C#N)cc1)c1cc(OCCN2CCC(O[C@H]3C[C@H](Oc4cc(N5C6CCC5CN(c5cc(-c7ccccc7OCc7ccc(NC(=O)[C@H](CCCCN(C)C)NC(=O)C8(C(=O)NCCCCCNC(=O)[C@H](CO)N9C(=O)C=CC9=O)CCC8)cc7)nnc5N)C6)ccn4)C3)CC2)no1 [Hy-B-CIDE-12] is below 80 in terms of DCmax (NCI-H1944).
1

Please determine if Cc1ncsc1-c1ccc([C@H](C)NC(=O)[C@@H]2C[C@@H](O)CN2C(=O)[C@@H](c2cc(OCCN3CCN(CCOc4cc(N5C6CCC5CN(c5cc(-c7ccccc7OCc7ccc(NC(=O)[C@H](CCCCN(C)C)NC(=O)C8(C(=O)NCCN(C)CCN9C(=O)C=CC9=O)CCC8)cc7)nnc5N)C6)ccn4)[C@H](C)C3)no2)C(C)C)cc1.O=C(O)C(F)(F)F [Hy-B-CIDE-5] is below 80 in terms of DCmax (NCI-H1944).
1

Please determine if CC(C)[C@@H](C(=O)N1C[C@H](O)C[C@H]1C(=O)N[C@@H](C)c1ccc(C#N)cc1)c1cc(OCCN2CCC(O[C@H]3C[C@H](Oc4cc(N5C6CCC5CN(c5cc(-c7ccccc7OCc7ccc(NC(=O)[C@H](CCCCN(C)C)NC(=O)C8(C(=O)NCCN(C)CCN9C(=O)C=CC9=O)CCC8)cc7)nnc5N)C6)ccn4)C3)CC2)no1 [Hy-B-CIDE-7] is below 80 in terms of DCmax (NCI-H1944).
1

* * *

# Tested Target: BRM (Homo sapiens)
# Construct: endogenous in cells; host or cells: HCC515 and H1944 (NCI-H1944) cells
# Test Method Notes: Cell assays to determine DC50 and Dmax (nuclear BRM immunofluorescence after Ab-CIDE treatment)
# Type: cell-based
# Recorded Conditions: NCI-H1944 cells, 24 h drug treatment, Ab target TfR2, conjugate DAR 5.41-6.14
Observable: DC50
Form field: result (number plus unit)

Endpoint output: DC50 of COC[C@@H](C(=O)NCCCCCNC(=O)C1(C(=O)N[C@@H](CCCCN(C)C)C(=O)Nc2ccc(COc3ccccc3-c3cc(N4CC5CCC(C4)N5c4ccnc(OCCN5CCN(CCOc6cc([C@H](C(=O)N7C[C@H](O)C[C@H]7C(=O)N[C@@H](C)c7ccc(-c8scnc8C)cc7)C(C)C)on6)C[C@H]5C)c4)c(N)nn3)cc2)CCC1)N1C(=O)C=CC1=O.O=C(O)C(F)(F)F [Hy-B-CIDE-2] . Value?
160 nM

Endpoint output: DC50 of CC(C)[C@@H](C(=O)N1C[C@H](O)C[C@H]1C(=O)N[C@@H](C)c1ccc(C#N)cc1)c1cc(OCCN2CCC(O[C@H]3C[C@H](Oc4cc(N5C6CCC5CN(c5cc(-c7ccccc7O)nnc5NC(=O)OCc5ccc(NC(=O)[C@H](CCCCN(C)C)NC(=O)C7(C(=O)NCCCCCNC(=O)[C@H](CO)N8C(=O)C=CC8=O)CCC7)cc5)C6)ccn4)C3)CC2)no1 [Hy-B-CIDE-10] . Value?
4440 nM

Endpoint output: DC50 of CC(C)[C@@H](C(=O)N1C[C@H](O)C[C@H]1C(=O)N[C@@H](C)c1ccc(C#N)cc1)c1cc(OCCN2CCC(O[C@H]3C[C@H](Oc4cc(N5C6CCC5CN(c5cc(-c7ccccc7O)nnc5NC(=O)OCc5ccc(NC(=O)[C@H](CCCCN(C)C)NC(=O)C7(C(=O)NCCCCCN(C)CCN8C(=O)C=CC8=O)CCC7)cc5)C6)ccn4)C3)CC2)no1.O=C(O)C(F)(F)F [Hy-B-CIDE-9] . Value?
2200 nM
